Target: human Farnesoid X Receptor (FXR) ligand binding domain (Homo sapiens, UniProt Q96RI1)
Sequence (Q96RI1 193-472 isoform Q96RI1-2): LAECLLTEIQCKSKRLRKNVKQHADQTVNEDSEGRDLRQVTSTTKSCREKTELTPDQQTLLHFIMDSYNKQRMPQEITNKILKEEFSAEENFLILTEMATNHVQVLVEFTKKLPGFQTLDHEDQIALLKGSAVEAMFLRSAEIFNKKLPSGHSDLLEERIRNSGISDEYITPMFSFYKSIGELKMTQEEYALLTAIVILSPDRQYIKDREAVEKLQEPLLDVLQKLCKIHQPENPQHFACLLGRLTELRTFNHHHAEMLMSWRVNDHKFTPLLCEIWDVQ
Test: Human GST-FXR LBD co-activator interaction assay (FXR HTRF assay)
Settings: GST-FXR LBD with biotin-labeled SRC-1 peptide, FRET/HTRF, 2.5 hours at room temperature; response relative to GW4064; read-out: FXR coactivator interaction assay (HTRF) (EC50)
Experimental: Human GST-FXR LBD Co-Activator Interaction Assay. The FXR HTRF assay is a biochemical assay measuring the interaction between FXR and a coactivator protein (SRC1). […] The ligand-dependent interaction between GST-FXR LBD and a peptide derived from Steroid Receptor Coactivator-1 (SRC-1) was monitored by Fluorescence Resonance Energy Transfer (FRET). […] Plates are incubated at room temperature in the dark for 2.5 hours before reading on an Envision (PerkinElmer) at 665 nm and 590 nm. […]
What EC50 was measured for each of the following?
Provide the reading as a plain figure in nM.

Return EC50 measured with human Farnesoid X Receptor (FXR) ligand binding domain (Homo sapiens, UniProt Q96RI1) given this compound: CCOC(=O)c1ccc2nc(N3CCC(OCc4c(-c5ccccc5OC(F)(F)F)noc4C4(C)CC4)CC3)sc2c1 [Example 2-2A]
1180

# repeat for O=C(O)c1ccc2nc(N3CCC(OCc4c(C5CC6CCC5C6)noc4C4CC4)CC3)sc2c1 (stereo not shown) [Example 2-17]
423

# repeat for O=C(O)c1cc(F)c2nc(N3CCC(OCc4c(-c5ccccc5OC(F)F)noc4C4CC4)CC3)sc2c1 [Example 2-10]
21

# repeat for O=C(O)c1ccc2nc(N3CCC(OCc4c(C5CCCCC5C(F)(F)F)noc4C4CC4)CC3)sc2c1 (single isomer, unassigned) [5 (Diastereomer A)]
245

# repeat for CCOC(=O)c1ccc2nc(N3CCC(OCc4c(-c5c(OC)cccc5C(F)(F)F)noc4C4CC4)CC3)sc2c1 [Example 2-7A]
736

# repeat for CCOC(=O)c1ccc2nc(N3CCCC(OCc4c(-c5ccccc5OC(F)(F)F)noc4C4CC4)CC3)sc2c1 (stereo not shown) [Example 3-1A]
248

# repeat for O=C(O)c1ccc2nc(N3CCC(OCc4c(-c5ccccc5OC(F)F)noc4C4CC4)CC3)sc2c1 [Example 2-8B]
45

# repeat for COc1cccc(C(F)(F)F)c1-c1noc(C2CC2)c1COC1CCN(c2nc3ccc(C(=O)O)cc3s2)CC1 [Example 2-7B]
75

# repeat for O=C(O)c1ccc2nc(N3CCC(OCc4c(C5CCCCC5C(F)(F)F)noc4C4CC4)CC3)sc2c1 (stereo not shown) [Example 5]
44

# repeat for CCOC(=O)c1ccc2nc(N3CCC(OCc4c(-c5ccccc5OC(F)F)noc4C4CC4)CC3)sc2c1 [Example 2-8A]
2420

# repeat for COc1cc(C(=O)O)cc2sc(N3CCC(OCc4c(-c5ccccc5C(F)(F)F)noc4C4CC4)CC3)nc12 [Example 1-4]
4

# repeat for O=C(O)c1ccc2nc(N3CCC(OCc4c(COc5c(Cl)cccc5Cl)noc4C4CC4)CC3)sc2c1 [Example 10-1]
89

# repeat for CCOC(=O)c1ccc2nc(N3CCC(OCc4c(-c5c(Cl)cccc5C(F)(F)F)noc4C4CC4)CC3)sc2c1 [Example 2-6A]
396
